Biological target: DGKζ (Homo sapiens, UniProt Q13574)
Sequence (Q13574 1-929 isoform Q13574-4): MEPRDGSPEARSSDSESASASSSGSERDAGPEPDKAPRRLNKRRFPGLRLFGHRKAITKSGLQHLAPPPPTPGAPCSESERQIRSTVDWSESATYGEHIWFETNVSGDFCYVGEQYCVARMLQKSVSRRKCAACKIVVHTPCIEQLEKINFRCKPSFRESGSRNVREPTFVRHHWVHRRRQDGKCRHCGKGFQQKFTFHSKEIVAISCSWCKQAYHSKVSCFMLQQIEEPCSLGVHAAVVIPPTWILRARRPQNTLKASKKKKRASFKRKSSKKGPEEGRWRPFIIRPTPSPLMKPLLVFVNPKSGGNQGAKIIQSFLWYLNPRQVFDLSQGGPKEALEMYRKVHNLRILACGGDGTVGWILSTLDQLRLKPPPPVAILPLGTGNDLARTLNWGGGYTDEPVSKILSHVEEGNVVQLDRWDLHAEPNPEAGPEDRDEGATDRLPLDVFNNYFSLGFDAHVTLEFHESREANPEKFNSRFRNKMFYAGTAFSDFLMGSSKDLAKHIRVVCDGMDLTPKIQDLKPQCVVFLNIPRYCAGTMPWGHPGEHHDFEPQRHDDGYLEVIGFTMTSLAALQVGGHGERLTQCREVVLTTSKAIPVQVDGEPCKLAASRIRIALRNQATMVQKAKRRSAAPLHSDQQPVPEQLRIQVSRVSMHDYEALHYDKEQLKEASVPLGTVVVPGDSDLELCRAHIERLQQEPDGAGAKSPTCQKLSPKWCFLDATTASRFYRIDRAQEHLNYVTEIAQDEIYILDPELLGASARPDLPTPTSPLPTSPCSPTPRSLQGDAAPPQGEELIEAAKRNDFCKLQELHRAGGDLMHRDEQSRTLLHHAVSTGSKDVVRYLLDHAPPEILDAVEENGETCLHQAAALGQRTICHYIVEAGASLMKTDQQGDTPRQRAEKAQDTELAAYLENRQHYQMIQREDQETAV
pIC50: −log10 of the molar value. Counter-ions that a name gives are not always drawn.
experimental-endpoint: pIC50

Below: 10 molecules and their reported pIC50.
molecule	target-or-test-system	assay-value
Cc1cc(F)ccc1N(CC1COCCN1C)[C@H]1CC[C@H](N(C)c2c(C#N)c(=O)n(C)c3ccc(C#N)nc23)CC1 (stereo partly shown)	DGKζ (Homo sapiens, UniProt Q13574)	6.00 to 7.00
Cn1c(=O)c(C#N)c(N(C)[C@H]2CC[C@@H](N(CC3CC3)c3cccc4c3oc(=O)n4C)CC2)c2nc(C#N)ccc21	DGKζ (Homo sapiens, UniProt Q13574)	≤ 6.00
Cn1c(=O)cc(N(C)[C@H]2CC[C@@H](N(CC(C)(C)CO)c3ccc(F)cc3)CC2)c2nc(C#N)ccc21	DGKζ (Homo sapiens, UniProt Q13574)	≤ 6.00
Cn1c(=O)c(C#N)c(N(C)[C@H]2CC[C@H](N(CC3COC3)c3ccc(F)cc3)CC2)c2nc(Cl)ccc21	DGKζ (Homo sapiens, UniProt Q13574)	≤ 6.00
Cn1c(=O)c(C#N)c(N(C)[C@H]2CC[C@H](N(CC3COC3)c3ccc(F)cc3O)CC2)c2nc(Cl)ccc21	DGKζ (Homo sapiens, UniProt Q13574)	≤ 6.00
COc1cccc(N(CC2CC2)[C@H]2CC[C@H](N(C)c3c(C#N)c(=O)n(C)c4ccc(Cl)nc34)CC2)c1	DGKζ (Homo sapiens, UniProt Q13574)	≤ 6.00
Cc1cc(F)ccc1N(CC1CN(C)CCO1)[C@H]1CC[C@H](N(C)c2c(C#N)c(=O)n(C)c3ccc(C#N)nc23)CC1 (stereo partly shown) [Example 186, trifluoroacetate]	DGKζ (Homo sapiens, UniProt Q13574)	≤ 6.00
Cc1cc(F)cc(N(CC2CCC2)[C@H]2CC[C@H](N(C)c3c(C#N)c(=O)n(C)c4ccc(C#N)nc34)CC2)c1	DGKζ (Homo sapiens, UniProt Q13574)	6.00 to 7.00
CN(c1c(C#N)c(=O)n(C)c2ccc(Cl)nc12)C1CCC(N(CC2CCC2)c2ccc(CN3CCOCC3)cc2)CC1 (single isomer, unassigned)	DGKζ (Homo sapiens, UniProt Q13574)	≤ 6.00
Cn1c(=O)c(C#N)c(N(C)[C@H]2CC[C@@H](N(CC3CCC3)c3cc4c(cc3F)OCO4)CC2)c2nc(C#N)ccc21	DGKζ (Homo sapiens, UniProt Q13574)	7.00 to 8.00

**Q:** Would you mind telling me what pIC50 value was observed for `Cc1[nH]c2ccccc2c1C(=O)N[C@H]1CC[C@H](N(CC2COC2)c2ccccc2)CC1` ?
**A:** ≤ 6.00

**Q:** And for `Cn1c(=O)c(C#N)c(N(C)[C@H]2CC[C@H](N(c3ccc(F)cn3)C3CC3)CC2)c2nc(Cl)ccc21` ?
**A:** 6.00 to 7.00

**Q:** Please give the result for `Cc1cc(N(CC2CCC2)[C@H]2CC[C@H](N(C)c3c(C#N)c(=O)n(C)c4ccc(C#N)nc34)CC2)ccc1F` too.
**A:** 6.00 to 7.00
